PBM binding z-score by entry:
- System: PXR homodimer (NR concentration 270 nM)
- assay-name: PBM binding z-score (relative to random genomic background probes); higher = stronger binding; sequences stand for … in GC…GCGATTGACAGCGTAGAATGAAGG
Number only, no unit.

Please review the following examples before continuing.
TCATATAGGTAATCAGGTGAAAGTCCGTAAGTTA | 0.68
ATATGTAGGTTAGGCTCATTCAGAAAGTAGGGAA | 0.16
GCTAGTTGGTCAGTAAATGGTCACACACCGGTCG | -0.353
TCGAGTAGGTTGCGGGGGCATTCAGGGATGAAGA | 2.38
ATAGGTAGGTTAGGGTCATTCAGAAAGTAGGGAA | 3.11
ATCGAAAGGTCGACGAGGTGAGTATGCACCGTTT | 0.682
CGTCCAAGGTCACCAGGTCAGTGAAAGCGACGTG | 1.21
TAGCCTAGGTCATTCAGGGGTCAGTATAGAAAGC | 1.35

Next sequence, please.
stdin: Requested field: PBM binding z-score. Item: `CCGAGTAGGTTACGAGGGGGCATCCAGTGCGAAT`
stdout: 2.67

====

- System: PPARg:RXRa 30nM:10nM, anti-RXR (NR concentration 30 nM, RXRa partner concentration 10 nM)
- assay-name: PBM binding z-score (relative to random genomic background probes); higher = stronger binding; sequences stand for … in GC…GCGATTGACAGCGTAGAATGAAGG
Is PBM binding z-score at least 3? Then True. If not, False.

Answered examples (5):
CGAACTAGGTCAAAGAACAGTGAAAGGCGACGTA | True
ATCTCTAGGTAAATGTTCAGTGAATCCCGAGGAT | False
ATCGAATGGTCGAGGTGAGTATAGAGAAAGGGAA | False
TCGAGTAGGTTACCGGGGCATTCAGGGATGAAGA | False
CCGAGTAGGTTACGAGGGGGCATTTAGTGCGAAT | False

stdin: Record `CCAGACAGGTGAAAGGTCACTCAGTCTGGTACGC` ; criterion: PBM binding z-score no lower than 3. Met?
stdout: True

stdin: Another sequence: `CAAACTAGGTCAAAGGTCAAACTCGAGCCAACCA`
stdout: True

stdin: What do you have for `ACTAGTGGGTCAGCTGAGGTCACACACAATTCGG` ?
stdout: True

stdin: And `CCTACTGGGTCATTCAGAGGTCATTGATCATATG` ?
stdout: True

stdin: Try `ATCTCTAGGTGAAAGTTCAGTGAATCCCGAGGAT` next.
stdout: True

stdin: Another sequence to look at: `ATATGTAGCTTAGGGTCATTCAGAAAGTAGGGAA`
stdout: False

stdin: Would you kindly repeat that for `CGAACTAGGTCATAGGACAGTGAAAGGCGACGTA` ?
stdout: True

stdin: Another: `ATATGTAGGTTAGGATCATTCAGAAAGTAGGGAA`
stdout: False

stdin: Next sequence: `CGTCCAAGGTCAACGCTAGGTCAGTGAAAGCATT`
stdout: False

stdin: Same for `CGAACTAGGTCACCAGGACAGTCAAGAGGTTGGA`
stdout: True

stdin: Same thing, different sequence: `AGTCAAAGTTCATCTAGGTAACGAAAGATATGCT`
stdout: True

stdin: Another sequence: `TAGCCTAGGTCATTGGGCCAGTATAGTACGCATC`
stdout: False

stdin: Would you kindly repeat that for `GCTAGTAGGTCAGTAAAAGGTCACACACCGGTCG` ?
stdout: True

stdin: And for `TAGCCTAGGTCATGCGGGCCAGTATAGTGTCGGC` ?
stdout: False

stdin: Quick one: `TAGCCTAGGTCATGGGCCTGTATACCACGCGAAC`
stdout: False

stdin: Same lookup for `TCGAGTAGGCTACGGGGGCATTCAGGGATGAAGA` , please.
stdout: False

stdin: # iterate: `CGTCGAAGGTCAATGCTAGGTCAGTGAAAGCATT`
stdout: False

====

Quick list: PBM binding z-score per entry.
- System: THRa:RXRa (NR concentration 90 nM, RXRa partner concentration 90 nM)
- assay-name: PBM binding z-score (relative to random genomic background probes); higher = stronger binding; sequences stand for … in GC…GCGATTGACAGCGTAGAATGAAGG
Lab note: jot the number down without any unit.

Solved entries:
CAACCTAGGTCACCGGAAGGTCAAAGTCCGCATG | 4.63
CGTCAAAGTTAAAGGTAACGTAACAGAAAGCAGC | 0.694
CAAACTAGGTCAAGGTCAAATTCGGTTTGTGCCA | 4.38
TCGATTAGGTTACGGGGGCATTCAGGGATGAAGA | 4.36

stdin: PBM binding z-score for `TCATATAGGTTAAGGTGAAAGTCGAACGATATGA` ?
stdout: 3.33

stdin: Same again, this time with `CCTTCTGGGCCATTCAGAGGTCATTGATCATATG`
stdout: 3.31

stdin: What do we get for `AGTCATAGTTCACTAGGTAACGTAAGATTCAGCT` ?
stdout: 1.11

stdin: Please answer likewise for `CTAAGTAGGTTAAGGGGGTCATTCAGTTTGAAAG`
stdout: 3.64

stdin: Also `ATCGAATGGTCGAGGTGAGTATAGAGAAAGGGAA` ?
stdout: 0.936

stdin: Can you handle `CGAACTAGGTCAGAGGACAGTGAAAGGCGACGTA` next?
stdout: 1.76

stdin: Param item: `CCTACTGGGCCATGAAAGGTCATTGATTCAGTGA`
stdout: 3.58

stdin: Another sequence: `GCTGCTAGGTCAGGATGGTCAGCTAACGGGTACG`
stdout: 1.7

stdin: Could you do the same for `CATACACGGTCAGCTAGGCCAGAGTAGGGACGGC` , please?
stdout: 0.226

stdin: Thanks! And `CGGACTGGGGCAAAGGTTACCATACTCAGTACGA` ?
stdout: 2.1

====

- System: RARg:RXRa (NR concentration 270 nM, RXRa partner concentration 90 nM)
- assay-name: PBM binding z-score (relative to random genomic background probes); higher = stronger binding; sequences stand for … in GC…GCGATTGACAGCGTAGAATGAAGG
Lab note: anything with PBM binding z-score at or over 5 counts as label 1; the rest go in label 0.

TCGAGTAGGTTACGGGCGCATTCAGGGATGAAGA | label 0
CTATGTAGGTTAAGGGGGTCAGTCAGTTTGAAAG | label 0
ATATGTAGGTTAGGGTCATTAAGAAAGTAGGGAA | label 0

stdin: Check this sequence for PBM binding z-score at or above 5: `CGAACTAGGTCAAAGGACACTGAAAGGCGACGTA`
stdout: label 0

stdin: What do you get for `AGTCAAAGTTCAGGACGAGATAACGTAAAGCACG` ?
stdout: label 0

stdin: Please do the same for `CACACTAGGTCAAAGGTCAAAGTCGAGCCAACCA` as well.
stdout: label 1

stdin: Further, for `CGTCAAAGTTCAAGGTAAAGTAACAGAAAGCAGC` ?
stdout: label 1

stdin: Field entry: `ACTCGGAGGACAAATGTCAGAGCTACGCCAGTGA`
stdout: label 0

stdin: Okay, and `ATCCAAAGGTCGAGGTGAGTATAGAGAAAGGGAA` ?
stdout: label 0

stdin: What would you report for `TCGAGTAGGTTACGGGGGCATACAGGGATGAAGA` ?
stdout: label 0

stdin: Would you kindly repeat that for `CCGACTAGGTTACGAGGGGGCATTCAGTGCGAAT` ?
stdout: label 0

stdin: Entry to check: `CGAATTAGGTCACCAGGACAGTGAAGAGGTTGGA`
stdout: label 0

====

- System: PXR homodimer (NR concentration 270 nM)
- assay-name: PBM binding z-score (relative to random genomic background probes); higher = stronger binding; sequences stand for … in GC…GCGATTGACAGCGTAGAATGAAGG
Binned PBM binding z-score; ranges: lower segment: < -0.3; middle segment: ≥ -0.3 and < 2; upper segment: ≥ 2

Please review the following examples before continuing.
CGAACTAGGTAAAAGGACAGTGAAAGGCGACGTA | lower segment
CCTACTGGGCCAATAAGGTCATTGATGCCGATAA | upper segment

stdin: Sort into band: `CGATCTAGGTCAAAGGACAGTGAAAGGCGACGTA`
stdout: lower segment

stdin: What do we get for `CATCCAAGGTCAAAGGTCAGTGAAGAGATGACGG` ?
stdout: upper segment

stdin: Entry `ATATGTAGGTTCCATCCGGGTCATTCAGGCTATG` please
stdout: upper segment

stdin: Next sequence: `TCGACTAGGTTACGGGGGCATTCAGGGATGAAGA`
stdout: upper segment

stdin: Again, but for `ATATGTAGGTCAGCTGGGGTCATTCAGACTAGGC`
stdout: upper segment

stdin: Request: `CCGAGTAGGTTACGAGGGGGCATTCACTGCGAAT`
stdout: middle segment

stdin: Lookup `AATACAGGGTGATCGTAGGCCAGAGTACGCACAG`
stdout: middle segment

stdin: Another sequence to check: `CTATGTAGGTTAAGGCGGTCATTCAGTTTGAAAG`
stdout: upper segment

stdin: Then `CGAACTAAGTCATTGACAGGACAGTGAATAGTAA` ?
stdout: lower segment

stdin: `CAGCCTAGGTGAGGGCCAGTATAGGAGGAACGTT` , same question.
stdout: lower segment
